Assay: inhibitors of CD8+ T cell-vesicle binding, pilot screen, LFA-1/ICAM-1 modulator project, MLPCN validation set, flow cytometry (AID 2523)
Conditions: 2C mouse CD8+ T cells, at 7 µM, stronger effect = lower value; measured here: CD8+/vesicle+ event percentage
Rule for this label: 1 means double positive events is less than 60%; -1 means double positive events is at least 60%.

Exam item: Regarding CC[C@H](CO)NCCN[C@H](CC)CO , kindly confirm whether its double positive events is beneath 60%.
Marked response: 1

Exam item: Quick check: double positive events of Cn1c(=O)c2c(ncn2CC(O)CO)n(C)c1=O (stereo not drawn) under 60%?
Marked response: 1

Exam item: Bench note: check whether CCC(=O)c1ccc(O)cc1 shows double positive events below 60%
Marked response: -1

Exam item: I wonder whether CNCCCN1c2ccccc2CCc2ccccc21 has double positive events below 60%. Can you tell?
Marked response: -1

Exam item: Please indicate whether the reported double positive events of COc1ccc2cc[nH]c2c1 is strictly below 60%.
Marked response: -1

Exam item: Below 60% on double positive events? Entry CCOC(=O)c1ccc(N2C(=O)C(CC(N)=O)N(CCc3ccc(OC)c(OC)c3)C2=S)cc1 (stereo not drawn)
Marked response: 1

Exam item: Field: below-cutoff. Rule: recorded double positive events strictly less than 60%. Subject: COc1cc([C@@H]2c3cc4c(cc3[C@H](O)[C@H]3COC(=O)[C@H]23)OCO4)cc(OC)c1OC
Marked response: -1

Exam item: Lab log: compare recorded double positive events with 60%; is it strictly lower for COc1cc(=O)n(C)c2ccccc12 ?
Marked response: 1

Exam item: is_below(double positive events, 60%) for C[C@H](NC(=O)Nc1ccccc1F)C(=O)O ?
Marked response: -1

Exam item: Consider the compound CC[N+](C)(CC)CCOC(=O)C(O)(c1ccccc1)C1CCCCC1 (stereo not drawn) . Is its double positive events strictly less than 60%?
Marked response: 1

Exam item: Could you please tell me whether double positive events recorded for O=C(NCCc1cccc(F)c1)[C@@H]1CSC2c3ccccc3C(=O)N21 (stereo partly drawn) is less than 60%?
Marked response: -1

Exam item: Item N=C(N)c1ccc(OCCCCCOc2ccc(C(=N)N)cc2)cc1 : double positive events beneath 60%, strictly?
Marked response: 1

Exam item: Please indicate whether the reported double positive events of Cc1ccc2c(c1)C(O)(CC(=O)/C=C/C=C/c1ccccc1)C(=O)N2 (stereo not drawn) is strictly below 60%.
Marked response: -1

Exam item: Consider the compound COc1ccccc1C(=O)N=C1NC(=O)CC2C(=O)NCCN12 (stereo not drawn) . Is its double positive events strictly less than 60%?
Marked response: -1
